STUDY_SYSTEM: human renin (Homo sapiens, UniProt P00797)
Sequence (P00797 67-406): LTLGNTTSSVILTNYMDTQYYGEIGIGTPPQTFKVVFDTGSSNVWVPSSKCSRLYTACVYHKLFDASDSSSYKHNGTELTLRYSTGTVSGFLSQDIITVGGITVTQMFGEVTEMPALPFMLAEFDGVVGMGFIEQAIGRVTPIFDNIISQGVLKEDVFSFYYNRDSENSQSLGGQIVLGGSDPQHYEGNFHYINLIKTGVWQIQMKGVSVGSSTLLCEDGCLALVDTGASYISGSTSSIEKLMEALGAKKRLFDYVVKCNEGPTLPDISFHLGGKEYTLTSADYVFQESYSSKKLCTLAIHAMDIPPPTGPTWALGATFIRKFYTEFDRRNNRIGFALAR
PROCEDURE_SUMMARY: Inhibitory effect on human renin-sheep renin substrate reaction system in vitro
Type: biochemical
pIC50 values for the molecules below.
As a rule, pIC50 stands for the negative log10 of the concentration, concentration in M.

Known pIC50 results, listed for orientation:
MOLECULE	STUDY_SYSTEM	pIC50
CC(C)OC(=O)C(O)[C@H](CC1CCCCC1)NC(=O)[C@H](Cc1c[nH]cn1)NC(=O)C(Cc1cccc2ccccc12)Cc1cccc2ccccc12 (mixture of isomers) [Compound L]	human renin (Homo sapiens, UniProt P00797)	7.31
CC(C)OC(=O)C(O)[C@H](CC1CCCCC1)NC(=O)[C@H](Cc1c[nH]cn1)NC(=O)C(Cc1ccc2c(c1)OCO2)Cc1ccc2c(c1)OCO2 (mixture of isomers) [Compound V]	human renin (Homo sapiens, UniProt P00797)	6.04
Cc1cccc(CC(Cc2cccc(C)c2)C(=O)N[C@@H](Cc2c[nH]cn2)C(=O)N[C@@H](CC2CCCCC2)C(O)C(=O)OC(C)C)c1 (mixture of isomers) [Compound Q]	human renin (Homo sapiens, UniProt P00797)	7.22
O=C(N[C@@H](Cc1c[nH]cn1)C(=O)N[C@@H](CC1CCCCC1)C(O)C(=O)OC1CCCC1)C(Cc1ccccc1)Cc1ccccc1 (mixture of isomers) [Compound K]	human renin (Homo sapiens, UniProt P00797)	7.74
Cc1cccc(CC(Cc2cccc(C)c2C)C(=O)N[C@@H](Cc2c[nH]cn2)C(=O)N[C@@H](CC2CCCCC2)C(O)C(=O)OC(C)C)c1C (mixture of isomers) [Compound M]	human renin (Homo sapiens, UniProt P00797)	7.11

Assay human renin (Homo sapiens, UniProt P00797), sample CC(C)OC(=O)C(O)[C@H](CC1CCCCC1)NC(=O)[C@H](Cc1c[nH]cn1)NC(=O)C(Cc1ccccc1F)Cc1ccccc1F (mixture of isomers) [Compound A] , pIC50 read: 8.03

Assay human renin (Homo sapiens, UniProt P00797), sample O=C(N[C@@H](Cc1c[nH]cn1)C(=O)N[C@@H](CC1CCCCC1)C(O)C(=O)OC1CCCC1)C(Cc1ccccc1F)Cc1ccccc1F (mixture of isomers) [Compound N] , pIC50 read: 7.54

Assay human renin (Homo sapiens, UniProt P00797), sample CC(C)OC(=O)C(O)[C@H](CC1CCCCC1)NC(=O)[C@H](Cc1c[nH]cn1)NC(=O)C(Cc1ccccc1C(F)(F)F)Cc1ccccc1C(F)(F)F (mixture of isomers) [Compound B] , pIC50 read: 6.92

Assay human renin (Homo sapiens, UniProt P00797), sample COc1ccccc1CC(Cc1ccccc1OC)C(=O)N[C@@H](Cc1c[nH]cn1)C(=O)N[C@@H](CC1CCCCC1)C(O)C(=O)OC(C)C (mixture of isomers) [Compound R] , pIC50 read: 6.77

Assay human renin (Homo sapiens, UniProt P00797), sample O=C(N[C@@H](Cc1cnc[nH]1)C(=O)N[C@@H](CC1CCCCC1)C(O)C(=O)OC(CF)CF)C(Cc1ccccc1)Cc1ccccc1 (some centres unmarked) [Compound P] , pIC50 read: 7.72

Assay human renin (Homo sapiens, UniProt P00797), sample Cc1ccccc1CC(Cc1ccccc1C)C(=O)N[C@@H](Cc1c[nH]cn1)C(=O)N[C@@H](CC1CCCCC1)C(O)C(=O)OC(C)C (mixture of isomers) [Compound W] , pIC50 read: 7.24

Reference source for all entries: patent US4870183A
